Biological target: T1, human GFRα3 expressed with a C-terminal myc-myc-hexahistidine tag (human, UniProt O60609 32-374, biotinylated (sites not given) in ELISA format 2 and in the Octet cross-competition; not in SPR)
T1 construct: also called hGFRα3-mmh; hGFRα3-mmH
T1 sequence (O60609 other isoform, or with tags, fused parts or gaps limits assumed): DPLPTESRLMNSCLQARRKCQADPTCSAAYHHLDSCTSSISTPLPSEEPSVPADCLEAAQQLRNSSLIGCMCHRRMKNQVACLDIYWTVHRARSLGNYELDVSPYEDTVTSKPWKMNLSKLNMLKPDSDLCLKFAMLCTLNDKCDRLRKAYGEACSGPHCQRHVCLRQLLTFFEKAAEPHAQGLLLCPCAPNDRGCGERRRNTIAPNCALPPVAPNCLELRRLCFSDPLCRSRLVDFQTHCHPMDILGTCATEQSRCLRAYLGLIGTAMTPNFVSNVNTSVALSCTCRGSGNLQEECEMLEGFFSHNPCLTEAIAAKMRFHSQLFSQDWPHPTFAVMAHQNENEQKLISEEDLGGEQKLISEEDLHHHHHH
Test: Octet cross-competition; biotin-hGFRα3-mmH pre-saturated with first antibody H4H2212N
readout-label: binding response of second antibody (nm)
I only need the number, in nm, no unit after it.

Look over these answered cases.
H4H2352S (antibody, human IgG4, V domains shown, human IgG4 Fc (H4H); also called H4H2352S-1) VH: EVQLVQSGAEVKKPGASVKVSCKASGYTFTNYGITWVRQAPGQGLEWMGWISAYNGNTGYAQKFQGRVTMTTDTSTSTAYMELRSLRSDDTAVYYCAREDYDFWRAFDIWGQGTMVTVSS VL: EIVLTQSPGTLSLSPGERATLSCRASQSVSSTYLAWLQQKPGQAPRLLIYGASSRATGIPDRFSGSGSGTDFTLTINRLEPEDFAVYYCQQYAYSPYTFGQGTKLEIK ... 0.08
H4H2350P (antibody, human IgG4, V domains shown, human IgG4 Fc (H4H)) VH: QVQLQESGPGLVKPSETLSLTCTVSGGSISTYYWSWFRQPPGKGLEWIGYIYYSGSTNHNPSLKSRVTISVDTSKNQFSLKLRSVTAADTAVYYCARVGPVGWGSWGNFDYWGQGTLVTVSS VL: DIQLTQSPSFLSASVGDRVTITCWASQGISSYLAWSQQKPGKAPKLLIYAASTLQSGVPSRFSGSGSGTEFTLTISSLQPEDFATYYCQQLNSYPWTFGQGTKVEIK ... 1.36
H4H2236N3 (antibody, human IgG4, V domains shown, human IgG4 Fc (H4H)) VH: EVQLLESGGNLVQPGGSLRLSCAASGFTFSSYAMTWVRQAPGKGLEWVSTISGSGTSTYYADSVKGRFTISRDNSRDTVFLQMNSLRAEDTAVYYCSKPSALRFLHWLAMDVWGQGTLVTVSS VL: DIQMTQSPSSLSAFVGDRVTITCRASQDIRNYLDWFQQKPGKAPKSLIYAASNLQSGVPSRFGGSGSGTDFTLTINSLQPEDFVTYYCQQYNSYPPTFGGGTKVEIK ... 2.14
H4H2295S (antibody, human IgG4, V domains shown, human IgG4 Fc (H4H)) VH: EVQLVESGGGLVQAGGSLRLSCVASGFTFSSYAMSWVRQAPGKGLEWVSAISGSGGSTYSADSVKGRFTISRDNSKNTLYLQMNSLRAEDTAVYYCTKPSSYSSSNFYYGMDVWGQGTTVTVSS VL: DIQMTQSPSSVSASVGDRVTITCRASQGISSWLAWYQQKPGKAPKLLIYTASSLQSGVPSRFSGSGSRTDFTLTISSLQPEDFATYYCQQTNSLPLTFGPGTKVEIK ... 2.15
H4H2342P (antibody, human IgG4, V domains shown, human IgG4 Fc (H4H)) VH: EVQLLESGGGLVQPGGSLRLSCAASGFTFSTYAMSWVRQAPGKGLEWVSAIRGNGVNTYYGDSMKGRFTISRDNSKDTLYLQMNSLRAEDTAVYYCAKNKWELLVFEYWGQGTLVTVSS VL: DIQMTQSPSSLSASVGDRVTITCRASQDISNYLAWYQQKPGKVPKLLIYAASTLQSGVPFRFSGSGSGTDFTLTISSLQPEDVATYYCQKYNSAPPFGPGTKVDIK ... 2.17

Name the reported binding response of second antibody (nm) value associated with the binder H4H2292S (antibody, human IgG4, V domains shown, human IgG4 Fc (H4H)) VH: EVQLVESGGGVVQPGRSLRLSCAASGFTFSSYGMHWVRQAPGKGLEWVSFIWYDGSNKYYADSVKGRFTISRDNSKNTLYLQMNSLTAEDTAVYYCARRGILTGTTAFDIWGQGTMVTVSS VL: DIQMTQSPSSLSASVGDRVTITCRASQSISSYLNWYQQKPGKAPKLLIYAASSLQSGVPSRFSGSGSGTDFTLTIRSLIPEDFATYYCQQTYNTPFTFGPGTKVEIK
1.76
